Hello, the source for this data is patent US20240239790A1, in case you need it.

Molecular target: DNA-PK phosphorylation at Serine 2056 (Homo sapiens, UniProt P78527)
Construct: FaDu cells were purchased from ATCC; host or cells: FaDu
Test: Cellular Assay for Inhibition of DNA-PK Phosphorylation at Serine 2056 in FaDu cells (sandwich ELISA, neocarzinostatin)
Assay type: cell-based
Conditions: pSer2056 DNA-PK, neocarzinostatin 1 μg/mL, Table 1
endpoint label: IC50

CN(C)C(=O)COc1cnc(N[C@H]2CC[C@@H](Oc3nc(N4CCOCC4)cc4ncc(NS(C)(=O)=O)cc34)CC2)nc1 [Compound 182] = 100 to 1000 nM
CN(C)S(=O)(=O)Nc1cnc2cc(N3CCOCC3)nc(O[C@H]3CC[C@@H](Nc4ncccn4)CC3)c2c1 [Compound 194] = 100 to 1000 nM
Cn1ccnc1COc1cnc(N[C@H]2CC[C@@H](Oc3nc(N4CCOCC4)cc4ncccc34)CC2)nc1 [Compound 79] = 100 to 1000 nM
CN(C)C(=O)COc1cnc(N[C@H]2CC[C@@H](Oc3nc(N4CCOCC4)cc4ncc(Br)cc34)CC2)nc1 [Compound 178] = 100 to 1000 nM
CONC(=O)c1cnc2cc(N3CCOCC3)nc(O[C@H]3CC[C@@H](n4ccnc4)CC3)c2c1 [Compound 171] = 1000 to 10000 nM

stdin: May I ask what IC50 has been recorded for Cc1noc(C)c1-c1cnc2cc(N3CCOCC3)nc(O[C@H]3CC[C@@H](n4ccnc4)CC3)c2c1 [Compound 157] ?
stdout: 1000 to 10000 nM

stdin: Dear colleague, I am looking for the recorded IC50 of the following compound: O=C(COc1cnc(N[C@H]2CC[C@@H](Oc3nc(N4CCOCC4)cc4ncccc34)CC2)nc1)N1CCSCC1 [Compound 73]
stdout: 100 to 1000 nM
